- Tested on: greenhouse red spider mite (Tetranychus urticae)
- ASSAY_OVERVIEW: Tetranychus urticae spray test, OP-resistant (TETRUR), bean leaf disks
- Assay type: in vivo
- ASSAY_CONDITIONS: Tetranychus urticae, foliar, 144 h, application rate 500 g/ha, after 6 days; read-out: efficacy (spider mites killed)
Each entry below lists one item and its recorded pest or weed control at 500 g/ha value.

COMPOUND: Cc1cc(F)c(/N=C(/CC(F)(F)F)N(C)C)cc1SCC(F)(F)F [Ia-216]
REPORTED_VALUE: 90%

Task: Give pest or weed control at 500 g/ha for the following compound: Cc1cc(F)c(/N=C(\NCC2CCCC(C(F)(F)F)C2)C2CC2)cc1SCC(F)(F)F (stereo not shown) [Ia-228]
Result: 90%

Task: Give pest or weed control at 500 g/ha for the following compound: CN/C(=N/c1cc(SCC(F)(F)F)c(C)cc1F)c1ccc(F)cc1 [Ia-144]
Result: 100%

* * *

- Test system: greenhouse red spider mite (Tetranychus urticae)
- ASSAY_OVERVIEW: Tetranychus urticae spray test, OP-resistant (TETRUR), bean leaf disks
- Format: in vivo
- ASSAY_CONDITIONS: Tetranychus urticae, foliar, 144 h, application rate 500 g/ha, after 6 days; read-out: efficacy (spider mites killed)
MEASUREMENT_KIND: pest or weed control at 500 g/ha (%)
Could you give me the number in %? Just the number is fine.

MOLECULE: Cc1cc(F)c(/N=C2\CCCN2c2ccc(C(F)(F)F)cc2)cc1[S+]([O-])CC(F)(F)F (stereo not shown)
ENDPOINT_UNIT: %
pest or weed control at 500 g/ha: 100
--
MOLECULE: N/C(=N\c1cc(SCC(F)(F)F)c(Cl)cc1Cl)C1CCCO1 (stereo not shown)
ENDPOINT_UNIT: %
pest or weed control at 500 g/ha: 90
--
MOLECULE: Cc1cc(F)c(/N=C/N(C)C)cc1[S+]([O-])CC(F)(F)F (stereo not shown)
ENDPOINT_UNIT: %
pest or weed control at 500 g/ha: 90

Task: GET pest or weed control at 500 g/ha where system = greenhouse red spider mite (Tetranychus urticae) and item = `Cc1cc(C)c(SCC(F)(F)F)cc1/N=C(\N)C1(Cl)CC1`
Result: 100

Task: GET pest or weed control at 500 g/ha where system = greenhouse red spider mite (Tetranychus urticae) and item = `N/C(=N\c1cccc(SCC(F)(F)F)c1)c1ccccn1`
Result: 100

Task: GET pest or weed control at 500 g/ha where system = greenhouse red spider mite (Tetranychus urticae) and item = `COc1cc(C)c(SCC(F)(F)F)cc1/N=C(/c1ccc(Cl)cc1)N(C)C`
Result: 90

Task: GET pest or weed control at 500 g/ha where system = greenhouse red spider mite (Tetranychus urticae) and item = `CN(C)/C(CC(F)(F)F)=N\c1cc(SCC(F)(F)F)c(Cl)cc1Cl`
Result: 100

Task: GET pest or weed control at 500 g/ha where system = greenhouse red spider mite (Tetranychus urticae) and item = CN(C)/C(=N/c1cc([S+]([O-])CC(F)(F)F)c(Cl)cc1F)C(F)(F)F (stereo not shown)
Result: 100

Task: GET pest or weed control at 500 g/ha where system = greenhouse red spider mite (Tetranychus urticae) and item = Cc1cc(F)c(/N=C(\c2ccc(F)cc2)N(C)C)cc1[S+]([O-])CC(F)(F)F (stereo not shown)
Result: 90

Task: GET pest or weed control at 500 g/ha where system = greenhouse red spider mite (Tetranychus urticae) and item = `CN/C(=N\c1cc(SCC(F)(F)F)c(C)cc1F)C1CC1`
Result: 100

Task: GET pest or weed control at 500 g/ha where system = greenhouse red spider mite (Tetranychus urticae) and item = `Cc1cc(C)c(SCC(F)(F)F)cc1/N=C(\N)c1cccnc1`
Result: 100

Task: GET pest or weed control at 500 g/ha where system = greenhouse red spider mite (Tetranychus urticae) and item = Cc1cc(F)c(/N=C(/NC(C)(C)C)C(F)(F)F)cc1[S+]([O-])CC(F)(F)F (stereo not shown)
Result: 100

Task: GET pest or weed control at 500 g/ha where system = greenhouse red spider mite (Tetranychus urticae) and item = `Cc1cc(F)c(/N=C(\c2cccc(C(F)(F)F)c2)N(C)C)cc1SCC(F)(F)F`
Result: 90

Task: GET pest or weed control at 500 g/ha where system = greenhouse red spider mite (Tetranychus urticae) and item = Cc1cc(F)c(/N=C(\NCC2CCC(C(F)(F)F)CC2)C2CC2)cc1SCC(F)(F)F (stereo not shown)
Result: 90

Task: GET pest or weed control at 500 g/ha where system = greenhouse red spider mite (Tetranychus urticae) and item = `Cc1cc(F)c(/N=C(\c2ccc(F)cc2)N(C)C)cc1SCC(F)(F)F`
Result: 90

Task: GET pest or weed control at 500 g/ha where system = greenhouse red spider mite (Tetranychus urticae) and item = `C#CCN/C(=N\c1cc(SCC(F)(F)F)c(Cl)cc1Cl)C1CC1`
Result: 90
